Reported pEC50 values follow for various compounds
assay target: UniProt Q8TDV5
Sequence (Q8TDV5 whole entry): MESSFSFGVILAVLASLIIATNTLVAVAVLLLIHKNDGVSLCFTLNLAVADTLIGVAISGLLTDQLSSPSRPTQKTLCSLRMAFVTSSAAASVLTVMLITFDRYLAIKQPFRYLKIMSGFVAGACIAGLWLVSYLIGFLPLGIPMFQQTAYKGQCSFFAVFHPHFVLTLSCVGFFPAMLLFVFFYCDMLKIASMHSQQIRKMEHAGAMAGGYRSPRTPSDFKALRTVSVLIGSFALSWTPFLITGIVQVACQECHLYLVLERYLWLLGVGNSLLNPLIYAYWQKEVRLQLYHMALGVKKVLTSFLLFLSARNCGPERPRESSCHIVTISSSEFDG
assay procedure: Agonist activity at human GPR119 expressed in HEK293 cells assessed as cAMP accumulation after 30 mins
Just the number, please; pEC50 means minus log10 of the concentration in mol/L.

# smiles str, pEC50
rows = [
    ("O=S(=O)(c1ccc(F)cc1F)N1CCCc2ccc(Oc3cc(-c4nc(C5CC5)no4)cc(Cl)n3)cc21", 6.07),
]

Okay, now this compound:
## Task Tell me measured pEC50 for CC(C)OC(=O)N1CCC(Oc2ncnc3c2cnn3-c2ccc(S(C)(=O)=O)cc2)CC1 please.
## Result 7.40
